# systemUnderTest: LPAAT-β (Homo sapiens, UniProt O15120)
# Sequence (O15120 24-278): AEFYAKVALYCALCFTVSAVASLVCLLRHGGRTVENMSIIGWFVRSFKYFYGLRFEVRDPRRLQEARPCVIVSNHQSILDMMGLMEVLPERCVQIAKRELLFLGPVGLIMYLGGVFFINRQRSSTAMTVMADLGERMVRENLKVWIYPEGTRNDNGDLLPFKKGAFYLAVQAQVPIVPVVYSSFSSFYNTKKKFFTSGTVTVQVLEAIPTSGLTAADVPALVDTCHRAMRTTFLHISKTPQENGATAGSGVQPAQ
Please provide measured IC50 for the entries that follow.
Write the quantity with the unit trailing the number.

1. COC(=O)Nc1ccc(Cl)c(-c2nc3cc(C(F)(F)F)ccc3s2)c1 :: 200 nM
2. CCC(=O)Nc1ccc(Cl)c(-c2nc3ccccc3o2)c1 :: 900 nM
3. C#CCOC(=O)Nc1ccc(Cl)c(-c2nc3c(C)cccc3o2)c1 :: 160 nM

Short answer please: IC50, LPAAT-β (Homo sapiens, UniProt O15120), entry C#CCOC(=O)Nc1ccc(C)c(-c2nc3cccnc3o2)c1
1200 nM
